target-or-system: HIV-1 RT Q151Mc (Human immunodeficiency virus type 1 group M subtype B, UniProt P03366, A661V/F676L/F715Y/Q750M/V674I)
Construct: made in house; host or cells: Escherichia coli BL21
experiment-notes: Primer extension assay
Type: biochemical
experimental-conditions: with 3.5 mM ATP, read-out: IC50 of TFV-DP, with ATP
quantity-kind: IC50 (µM)

CC(Cn1cnc2c(N)ncnc21)OCP(=O)(O)OP(=O)(O)OP(=O)(O)O (stereo in doubt) [TFV-DP, tenofovir-diphosphate]
4

====

Test system: HIV-1 Q151Mc/K70R
experiment-notes: Single-cycle drug susceptibility assay (MAGIC-5 cells)
Format: cell-based
experimental-conditions: Human immunodeficiency virus 1, MAGIC-5; Q151Mc/K70R
Where a name gives a salt, the structure may show the parent alone.
quantity-kind: log10 EC50 (log10 of the value in µM)

Nc1ccn([C@@H]2CS[C@H](CO)O2)c(=O)n1
1.20
CC(C)OC(=O)OCOP(=O)(CO[C@H](C)Cn1cnc2c(N)ncnc21)OCOC(=O)OC(C)C [TFV-DF, tenofovir disoproxil fumarate]
-1.52
O=c1[nH]cnc2c1ncn2[C@H]1CC[C@@H](CO)O1
1.72
Cc1cn([C@H]2C=C[C@@H](CO)O2)c(=O)[nH]c1=O
1.64
Nc1nc(NC2CC2)c2ncn([C@H]3C=C[C@@H](CO)C3)c2n1
1.15

====

Listing of entries alongside the reported Kd.
target-or-system: HIV-1 RT K70Q/Q151Mc (Human immunodeficiency virus type 1 group M subtype B, UniProt P03366, A661V/F676L/F715Y/K669Q/Q750M/V674I)
Construct: made in house; host or cells: Escherichia coli BL21
experiment-notes: Pre-steady state kinetics of binding and incorporation
Format: biochemical
experimental-conditions: K70Q/Q151Mc RT, binding to RT-DNA complex
quantity-kind: Kd

Nc1ncnc2c1ncn2[C@H]1C[C@H](O)[C@@H](COP(=O)(O)OP(=O)(O)OP(=O)(O)O)O1
5 µM
CC(Cn1cnc2c(N)ncnc21)OCP(=O)(O)OP(=O)(O)OP(=O)(O)O (stereo in doubt) [TFV-DP, tenofovir-diphosphate]
8.9 µM

====

Listing of entries alongside the reported pEC50.
System: HIV-1 K70E
experiment-notes: Single-cycle drug susceptibility assay (MAGIC-5 cells)
Format: cell-based
experimental-conditions: Human immunodeficiency virus 1, MAGIC-5; K70E
pEC50: −log10 of the molar value. Structures can show the parent of a compound that is named as a salt.
quantity-kind: pEC50

Nc1ccn([C@@H]2CS[C@H](CO)O2)c(=O)n1
4.80
O=c1[nH]cnc2c1ncn2[C@H]1CC[C@@H](CO)O1
4.89
Cc1cn([C@H]2C=C[C@@H](CO)O2)c(=O)[nH]c1=O
4.80
Nc1nc(NC2CC2)c2ncn([C@H]3C=C[C@@H](CO)C3)c2n1
5.14
CC(C)OC(=O)OCOP(=O)(CO[C@H](C)Cn1cnc2c(N)ncnc21)OCOC(=O)OC(C)C [TFV-DF, tenofovir disoproxil fumarate]
7.70

====

target-or-system: HIV-1 RT Q151Mc (Human immunodeficiency virus type 1 group M subtype B, UniProt P03366, A661V/F676L/F715Y/Q750M/V674I)
Construct: made in house; host or cells: Escherichia coli BL21
experiment-notes: Primer extension assay
Assay type: biochemical
experimental-conditions: without ATP, read-out: IC50 of TFV-DP, without ATP
quantity-kind: IC50

CC(Cn1cnc2c(N)ncnc21)OCP(=O)(O)OP(=O)(O)OP(=O)(O)O (stereo in doubt) [TFV-DP, tenofovir-diphosphate]
1500 nM

====

target-or-system: HIV-1 RT K70Q/Q151Mc (Human immunodeficiency virus type 1 group M subtype B, UniProt P03366, A661V/F676L/F715Y/K669Q/Q750M/V674I)
Construct: made in house; host or cells: Escherichia coli BL21
experiment-notes: ATP-dependent rescue assay
Type: biochemical
Protocol: Template/primer (T31/P18) terminated with TFV (T/PTFV) was prepared as described in Michailidis et al. 20 nM of T/PTFV was incubated at 37°C with HIV-1 RT (60 nM), either at various concentrations of ATP (0–7 mM) for 30 minutes, or for various times (0–120 minutes) with 3.5 mM ATP, in RT buffer containing 50 mM Tris-HCl, pH 7.8, and 50 mM NaCl, and 10 mM MgCl2. […] Reactions were quenched with 100% formamide containing traces of bromophenol blue and analyzed as described above. […]
quantity-kind: Kd (mM)

Nc1ncnc2c1ncn2[C@@H]1O[C@H](COP(=O)(O)OP(=O)(O)OP(=O)(O)O)[C@@H](O)[C@H]1O [ATP, adenosine triphosphate]
3.1

====

target-or-system: HIV-1 RT WT (Human immunodeficiency virus type 1 group M subtype B, UniProt P03366)
Construct: made in house; host or cells: Escherichia coli BL21
experiment-notes: ATP-dependent rescue assay
Format: biochemical
experimental-conditions: rescue of TFV-terminated primer, 30 minutes, read-out: apparent KD-ATP
pKd: −log10 of the molar value.
quantity-kind: pKd

Nc1ncnc2c1ncn2[C@@H]1O[C@H](COP(=O)(O)OP(=O)(O)OP(=O)(O)O)[C@@H](O)[C@H]1O [ATP, adenosine triphosphate]
3.40

====

target-or-system: HIV-1 RT WT (Human immunodeficiency virus type 1 group M subtype B, UniProt P03366)
Construct: made in house; host or cells: Escherichia coli BL21
experiment-notes: Primer extension assay
Assay type: biochemical
experimental-conditions: with 3.5 mM ATP, read-out: IC50 of TFV-DP, with ATP
pIC50: −log10 of the molar value.
quantity-kind: pIC50

CC(Cn1cnc2c(N)ncnc21)OCP(=O)(O)OP(=O)(O)OP(=O)(O)O (stereo in doubt) [TFV-DP, tenofovir-diphosphate]
5.73

====

target-or-system: HIV-1 RT K70Q (Human immunodeficiency virus type 1 group M subtype B, UniProt P03366, K669Q)
Construct: made in house; host or cells: Escherichia coli BL21
experiment-notes: Primer extension assay
Format: biochemical
experimental-conditions: without ATP, read-out: IC50 of TFV-DP, without ATP
Procedure: RT sequences coding for the p66 and p51 subunits of BH10 were cloned in the pRT dual vector, which is derived from pCDF-2 with LIC duet minimal adaptor (Novagen), using restriction sites PpuMI and SacI for the p51 subunit, and SacII and AvrII for the p66 subunit. […] RT concentrations were determined spectrophotometrically based on absorption at […] using a calculated extinction coefficient (261,610 M^−1 cm^−1). […]
quantity-kind: IC50 (nM)

CC(Cn1cnc2c(N)ncnc21)OCP(=O)(O)OP(=O)(O)OP(=O)(O)O (stereo in doubt) [TFV-DP, tenofovir-diphosphate]
802

====

target-or-system: HIV-1 RT K70Q (Human immunodeficiency virus type 1 group M subtype B, UniProt P03366, K669Q)
Construct: made in house; host or cells: Escherichia coli BL21
experiment-notes: Pre-steady state kinetics of binding and incorporation
Format: biochemical
experimental-conditions: K70Q RT, binding to RT-DNA complex
Listing of entries alongside the reported Kd.
quantity-kind: Kd

CC(Cn1cnc2c(N)ncnc21)OCP(=O)(O)OP(=O)(O)OP(=O)(O)O (stereo in doubt) [TFV-DP, tenofovir-diphosphate]
8.6 µM
Nc1ncnc2c1ncn2[C@H]1C[C@H](O)[C@@H](COP(=O)(O)OP(=O)(O)OP(=O)(O)O)O1
3.8 µM

====

target-or-system: HIV-1 RT WT (Human immunodeficiency virus type 1 group M subtype B, UniProt P03366)
Construct: made in house; host or cells: Escherichia coli BL21
experiment-notes: Primer extension assay
Type: biochemical
experimental-conditions: without ATP, read-out: IC50 of TFV-DP, without ATP
quantity-kind: IC50

CC(Cn1cnc2c(N)ncnc21)OCP(=O)(O)OP(=O)(O)OP(=O)(O)O (stereo in doubt) [TFV-DP, tenofovir-diphosphate]
641 nM

====

Listing of entries alongside the reported pEC50.
System: HIV-1 clinical isolate 1 (Q151Mc-containing)
experiment-notes: Single-cycle drug susceptibility assay (MAGIC-5 cells), clinical isolate 1
Type: cell-based
experimental-conditions: Human immunodeficiency virus 1; clinical isolate 1, MAGIC-5 cells
pEC50: −log10 of the molar value. Counter-ions that a name gives are not always drawn.
quantity-kind: pEC50

O=c1[nH]cnc2c1ncn2[C@H]1CC[C@@H](CO)O1
4.53
Nc1nc(=O)n([C@@H]2CS[C@H](CO)O2)cc1F
5.46
Nc1nc(NC2CC2)c2ncn([C@H]3C=C[C@@H](CO)C3)c2n1
4.79
CC(C)OC(=O)OCOP(=O)(CO[C@H](C)Cn1cnc2c(N)ncnc21)OCOC(=O)OC(C)C [TFV-DF, tenofovir disoproxil fumarate]
7.40
Cc1cn([C@H]2C=C[C@@H](CO)O2)c(=O)[nH]c1=O
4.74

====

target-or-system: HIV-1 RT K70Q (Human immunodeficiency virus type 1 group M subtype B, UniProt P03366, K669Q)
Construct: made in house; host or cells: Escherichia coli BL21
experiment-notes: ATP-dependent rescue assay
Type: biochemical
quantity-kind: Kd

Nc1ncnc2c1ncn2[C@@H]1O[C@H](COP(=O)(O)OP(=O)(O)OP(=O)(O)O)[C@@H](O)[C@H]1O [ATP, adenosine triphosphate]
700 µM
